Tested on: AcoR/P_H16_RS19445 acetoin biosensor (pEH052)
ASSAY PROTOCOL: relative induction of RFP reporter vs primary effector (background-corrected); higher = stronger activation of the biosensor
ASSAY SETUP: inducer concentration 5 mM; 6 h; Cupriavidus necator H16; minimal medium + 0.4% gluconate
MEASUREMENT NAME: relative induction of RFP reporter (%)
Give the value, in units of %, as a plain number.

Please review the entries below; each comes with its answer.
INSERT INTO assay_data (molecule, test_system, measure_unit, numeric_readout) VALUES
  ('NCC(=O)O', 'AcoR/P_H16_RS19445 acetoin biosensor (pEH052)', '%', -0.038),
  ('O=C(O)C(O)C(=O)O', 'AcoR/P_H16_RS19445 acetoin biosensor (pEH052)', '%', 0.914),
  ('Oc1ccc(O)cc1 [hydroquinone]', 'AcoR/P_H16_RS19445 acetoin biosensor (pEH052)', '%', 4.27);

Proceeding to the next molecule to report its relative induction of RFP reporter.
Request: Indicate the recorded relative induction of RFP reporter value for this molecule: O=C(O)C[C@H](O)C(=O)O [L-malate]
Result: -0.197

###

Each item that follows carries a reported relative induction of RFP reporter.
Test system: AcoR/P_H16_RS19445 acetoin biosensor (pEH052);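 note: RFP excited at 585 nm with emission read at 620 nm, culture medium blanks subtracted from fluorescence and absorbance prior to normalisation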
ASSAY PROTOCOL: relative induction of RFP reporter vs primary effector (background-corrected); higher = stronger activation of the biosensor
ASSAY SETUP: inducer concentration 5 mM; 6 h; Cupriavidus necator H16; minimal medium + 0.4% gluconate
Give the value, in units of %, as a plain number.

Please review the entries below; each comes with its answer.
INSERT INTO results (compound, test_system, measurement_name, numeric_readout) VALUES
  ('O=C(O)c1ccc(O)cc1 [4-hydroxybenzoate]', 'AcoR/P_H16_RS19445 acetoin biosensor (pEH052)', 'relative induction of RFP reporter', 0.234),
  ('O=C(O)C1CCCC1 [cyclopentane-1-carboxylate]', 'AcoR/P_H16_RS19445 acetoin biosensor (pEH052)', 'relative induction of RFP reporter', 9.44),
  ('Oc1ccccc1O', 'AcoR/P_H16_RS19445 acetoin biosensor (pEH052)', 'relative induction of RFP reporter', 1.82),
  ('N[C@@H](CC(=O)O)C(=O)O [L-aspartate]', 'AcoR/P_H16_RS19445 acetoin biosensor (pEH052)', 'relative induction of RFP reporter', -1.54);

Request: Indicate the recorded relative induction of RFP reporter value for this compound: "Oc1cccc(O)c1"
Result: 1.11

Request: Indicate the recorded relative induction of RFP reporter value for this compound: "Cn1c(=O)c2c(ncn2C)n(C)c1=O"
Result: 3.23

Request: Indicate the recorded relative induction of RFP reporter value for this compound: O=C(O)/C=C/C(=O)O [fumarate]
Result: -1.09

Request: Indicate the recorded relative induction of RFP reporter value for this compound: NCC(N)C(=O)O (configuration not stated) [2,3-diaminopropanoate]
Result: 0.396

Request: Indicate the recorded relative induction of RFP reporter value for this compound: "CCCC(=O)O"
Result: -2.08

Request: Indicate the recorded relative induction of RFP reporter value for this compound: "OC[C@@H](O)[C@@H](O)[C@H](O)[C@H](O)CO"
Result: 4.32

Request: Indicate the recorded relative induction of RFP reporter value for this compound: O=C(O)c1c(O)cccc1O [2,6-dihydroxybenzoate]
Result: 2.22

Request: Indicate the recorded relative induction of RFP reporter value for this compound: O=C(O)/C=C\C=C/C(=O)O [cis,cis-muconate]
Result: -0.277

Cited source for all entries: the supplement of paper PMC7057948
